# TGT: CDK4 (Homo sapiens)
# Construct: purchased Carna Company
# Sequence (P11802 whole entry): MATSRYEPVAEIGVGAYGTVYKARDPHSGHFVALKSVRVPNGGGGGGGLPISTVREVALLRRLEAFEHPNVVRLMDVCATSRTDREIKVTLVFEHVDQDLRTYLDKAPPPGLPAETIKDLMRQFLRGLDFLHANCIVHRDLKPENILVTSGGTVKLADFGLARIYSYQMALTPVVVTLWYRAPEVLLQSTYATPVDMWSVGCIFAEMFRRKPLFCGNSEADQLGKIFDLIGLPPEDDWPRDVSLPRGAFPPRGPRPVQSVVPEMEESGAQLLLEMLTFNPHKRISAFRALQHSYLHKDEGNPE
# Sequence (P30281 whole entry partner): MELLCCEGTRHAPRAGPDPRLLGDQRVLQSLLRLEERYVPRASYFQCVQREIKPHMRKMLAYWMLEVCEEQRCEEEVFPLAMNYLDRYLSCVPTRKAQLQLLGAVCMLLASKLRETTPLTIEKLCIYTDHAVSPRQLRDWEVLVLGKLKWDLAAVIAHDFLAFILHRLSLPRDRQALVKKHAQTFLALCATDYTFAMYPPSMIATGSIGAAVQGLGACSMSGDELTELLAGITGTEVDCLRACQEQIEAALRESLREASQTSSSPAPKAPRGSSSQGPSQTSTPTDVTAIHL
# EXPERIMENT SUMMARY: CDK enzymology experiment in vitro, capillary mobility shift assay (MSA)
# Assay type: biochemical
# CONDITIONS USED: read-out: CDK4 (nM) inhibitory IC50
MEASURED METRIC: IC50

Consider the reported IC50 for these compounds:
compound="Cn1cc(-c2ccc(S(=O)(=O)N3CCC(Nc4ncc(C#N)c(N[C@H]5CC[C@H](O)C5)n4)CC3)cc2)cn1 (single isomer, unassigned) [Compound 83]" tgt="CDK4 (Homo sapiens)" experimental_result="0.5 to 2.5 nM"
compound="CN(C)[C@@H]1CCCC1Nc1nc(NC2CCN(S(=O)(=O)c3cnn(C)c3)CC2)ncc1C#N (stereo partly shown) [Example 23]" tgt="CDK4 (Homo sapiens)" experimental_result="50 to 100 nM"
compound="O=S(=O)(c1ccc(N2CCNCC2)cc1)N1CCC(Nc2ncc(C(F)(F)F)c(O[C@H]3CCOC3)n2)CC1 [Example 116]" tgt="CDK4 (Homo sapiens)" experimental_result="0.5 to 2.5 nM"

Please turn your attention to the following entry.
Input line: Could you share which IC50 value was measured for O=S(=O)(c1ccc(N2C3CCC2CNC3)nc1)N1CCC(Nc2ncc(C(F)(F)F)c(O[C@H]3CCOC3)n2)CC1 [Compound 183] ?
Output line: 0.5 to 2.5 nM
